For each record, write down the corresponding apparent KD of MS2 coat protein.
- System: MS2 coat protein
- protocol-summary: apparent KD of MS2 coat protein; designed switch direction (-1 OFF switch, 1 ON switch): -1; higher = weaker reporter binding
- test-settings: Eterna round: R95; input ligand: FMN 200 uM
// units = nM; emit number, no label

Qu. Provide measured apparent KD of MS2 coat protein value, entry: GGUUGGUGAGGAUAUACAUGAGGAUCACCCAUGUGAGAGAAAGAAGUGAGGAAGAAAAGUAGAAGGCGCUGACG [salish99_ex3_r3_054] (puzzle: Exclusion 3)
Ans. 87.1

Qu. Provide measured apparent KD of MS2 coat protein value, entry: ACAAGCUUUUUGCUCGUCUUGUAGAAACGUGAGAGCGAGACAUGAGGAUCACCCAUGUAAAGGCAGUAGGUGGAGAU [JR_SV3TOV2_Sub026] (puzzle: Sensor v3, turn-off variant 2)
Ans. 36.9

Qu. Provide measured apparent KD of MS2 coat protein value, entry: UUUAAUUUUUUUUUUUUACAAGCUUUUUGCUCGUCUUAUACAUGAGGAUCACCCAUGUGAAUGGAAGGUAAAUUAUC [JMF 68] (puzzle: Sensor v3, turn-off variant 2)
Ans. 17.3

Qu. Provide measured apparent KD of MS2 coat protein value, entry: AAGUACUACAAGCUUUGGGACAUGAGGAUCACCCAUGUUCGUCUUAUUGAUCUAGGUACGCUGACGUACCUAGAUCU [Mat - Sensor v3 - turn-off var 1 - JL Mod - D8] (puzzle: Sensor v3, turn-off variant 1)
Ans. 16.5

Qu. Provide measured apparent KD of MS2 coat protein value, entry: AAAUAACAAGCAGGAUCCUACAUGAGGAUCACCCAUGUGCUCGUCUUAUAAAGUACUAUCACGAAAGUGAUAGUACA [Sensor 3, v1 - 14] (puzzle: Sensor v3, turn-off variant 1)
Ans. 434
